molecular target: human 5-HT1A receptors (Homo sapiens, UniProt P08908); construct: expressed in transfected cells; cell homogenate; assay: Inhibition of 3H-5-CT binding to human 5-HT1A receptors
Sequence (P08908 whole entry): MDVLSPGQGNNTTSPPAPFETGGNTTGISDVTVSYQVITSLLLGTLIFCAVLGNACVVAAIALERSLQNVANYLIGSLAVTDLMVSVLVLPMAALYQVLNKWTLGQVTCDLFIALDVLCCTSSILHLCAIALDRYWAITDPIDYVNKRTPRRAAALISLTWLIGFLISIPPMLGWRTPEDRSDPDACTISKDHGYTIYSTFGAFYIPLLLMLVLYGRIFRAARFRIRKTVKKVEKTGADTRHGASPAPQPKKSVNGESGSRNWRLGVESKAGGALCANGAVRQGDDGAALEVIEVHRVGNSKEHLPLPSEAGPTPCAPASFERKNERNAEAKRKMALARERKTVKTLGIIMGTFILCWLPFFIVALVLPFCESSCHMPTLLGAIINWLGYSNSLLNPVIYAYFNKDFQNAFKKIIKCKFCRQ

| Molecule | Test system | IC50 |
| --- | --- | --- |
| N#Cc1cccnc1SCCN1CCN(c2cccc3c2OCCO3)CC1 [Compound 2a] | human 5-HT1A receptors (Homo sapiens, UniProt P08908) | < 300 nM |
